# Target Under Test: T1, Recombinant human MASP1 enzyme (fragment corresponding to amino acids 297-699, C-terminal His Tag) (human, UniProt P48740 297-699)
# T1 sequence: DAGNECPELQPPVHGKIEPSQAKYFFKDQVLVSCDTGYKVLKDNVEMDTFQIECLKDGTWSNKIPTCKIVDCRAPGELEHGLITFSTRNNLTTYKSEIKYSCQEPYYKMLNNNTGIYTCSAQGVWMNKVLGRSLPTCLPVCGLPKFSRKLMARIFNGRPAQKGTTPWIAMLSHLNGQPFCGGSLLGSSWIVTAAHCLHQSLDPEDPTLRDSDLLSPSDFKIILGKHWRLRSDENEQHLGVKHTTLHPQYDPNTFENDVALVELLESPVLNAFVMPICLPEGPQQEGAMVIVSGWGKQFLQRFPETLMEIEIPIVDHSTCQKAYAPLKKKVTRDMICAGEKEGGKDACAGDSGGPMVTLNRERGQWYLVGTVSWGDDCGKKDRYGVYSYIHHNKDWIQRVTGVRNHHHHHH
# Test: cell-based or functional assay
Bridge positions count the residues as written; N and C are the ends. Square brackets hold non-standard residues; d marks the D form. Ends that are not written are not given here. Oic = O=C(O)[C@@H]1C[C@@H]2CCCC[C@@H]2N1; Pen = CC(C)(S)[C@H](N)C(=O)O; Sar = CNCC(=O)O
Measurement Kind: human MASP1 IC50 (nM)
Numbers only, in nM.

Q: For the binder [Sar]ICSRSLP[Oic]I[Pen]I-OH (disulfide 3-11; N-terminus assumed; SMILES CC[C@H](C)[C@H](NC(=O)[C@H]1NC(=O)[C@H]([C@@H](C)CC)NC(=O)[C@@H]2C[C@@H]3CCCC[C@@H]3N2C(=O)[C@@H]2CCCN2C(=O)[C@H](CC(C)C)NC(=O)[C@H](CO)NC(=O)[C@H](CCCNC(=N)N)NC(=O)[C@H](CO)NC(=O)[C@@H](NC(=O)[C@@H](NC(=O)CNC)[C@@H](C)CC)CSSC1(C)C)C(=O)O) [((N-Me)G)-IC+SRSLP-(Oic)-I-(Pen)+I-OH] , give its reported human MASP1 IC50.
Ans: 4.9

These measurements were taken from patent US20210246166A1.
